# tested_system: PDGF-BB (platelet-derived growth factor BB) (UniProt P01127 82-190)
# Sequence (P01127 82-190): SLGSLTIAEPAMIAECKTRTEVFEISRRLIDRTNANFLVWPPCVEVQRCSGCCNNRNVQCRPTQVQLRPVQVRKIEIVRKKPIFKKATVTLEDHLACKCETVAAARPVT
# assay: bead-based fluorescence; PDGF-BB and ApoE: PBS pH 7.4, 1 mM MgCl2, 0.025% Tween 20; thrombin: 50 mM Tris pH 7.5, 100 mM NaCl, 1 mM MgCl2, 5 mM KCl, 1 mM CaCl2, 0.025% Tween 20; 1 h, room temperature
# experimental_context: protein: commercial; chain copies: 2; label: 5'-FAM
pKd: −log10 of the molar value.
attribute_measured: pKd

CACAGGCTACGGCACGTAGAGCATCACCATGATCCTGTG (ssDNA) [Green PDGF aptamer 36t]    9.92
